# log kw, ODS values compiled below
Assay: RP-HPLC retention on Purosphere RP-18e (ODS) column, buffer pH 7.4-acetonitrile
Format: physicochemical
Conditions: extrapolated to buffer pH 7.4 as mobile phase, 25 °C
ASSAY ENDPOINT: log kw, ODS

Cc1ccc(N2CCn3c2nnc(Cc2ccccc2Cl)c3=O)cc1 [Compound 48] = 3.12
CCOc1ccc(N2CCn3c2nnc(Cc2cccc(Cl)c2)c3=O)cc1 [Compound 54] = 3.35
O=c1c(Cc2ccc(Cl)cc2)nnc2n1CCN2c1ccccc1 [Compound 44] = 3.60
CCc1nnc2n(c1=O)CCN2c1ccccc1 [Compound 1] = 0.97
O=c1c(Cc2ccccc2Cl)nnc2n1CCN2c1ccc(Cl)cc1 [Compound 58] = 3.55
Cc1ccccc1N1CCn2c1nnc(-c1ccccc1)c2=O [Compound 30] = 2.12
Cc1ccc(N2CCn3c2nnc(-c2ccccc2)c3=O)cc1 [Compound 32] = 2.93
COC(=O)Cc1nnc2n(c1=O)CCN2c1ccccc1 [Compound 7] = 1.28
CCOc1ccc(N2CCn3c2nnc(Cc2ccccc2)c3=O)cc1 [Compound 51] = 3.28
Cc1ccc(N2CCn3c2nnc(CCc2ccccc2)c3=O)cc1 [Compound 62] = 3.23
O=c1c(-c2ccccc2)nnc2n1CCN2c1ccccc1 [Compound 29] = 2.49
O=c1c(-c2ccco2)nnc2n1CCN2c1ccc(Cl)c(Cl)c1 [Compound 27] = 3.46
CCOC(=O)Cc1nnc2n(c1=O)CCN2c1ccc(Cl)cc1 [Compound 16] = 2.80
Cc1ccccc1N1CCn2c1nnc(-c1ccco1)c2=O [Compound 19] = 1.74
Cc1cccc(N2CCn3c2nnc(-c2ccccc2)c3=O)c1 [Compound 31] = 2.93
CCOC(=O)Cc1nnc2n(c1=O)CCN2c1ccc(Cl)c(Cl)c1 [Compound 17] = 3.16
O=c1c(Cc2cccc(Cl)c2)nnc2n1CCN2c1ccccc1 [Compound 43] = 3.59
CCOC(=O)Cc1nnc2n(c1=O)CCN2c1ccccc1 [Compound 12] = 1.75
O=c1c(Cc2cccc(Cl)c2)nnc2n1CCN2c1ccc(Cl)cc1 [Compound 59] = 3.61
COc1ccc(N2CCn3c2nnc(-c2ccccc2)c3=O)cc1 [Compound 34] = 2.59

Origin of the recorded values: paper PMC7037052
